Assayed Target: T1, RBFOX1 RRM (Homo sapiens, UniProt Q9NWB1 109-208)
T1 sequence: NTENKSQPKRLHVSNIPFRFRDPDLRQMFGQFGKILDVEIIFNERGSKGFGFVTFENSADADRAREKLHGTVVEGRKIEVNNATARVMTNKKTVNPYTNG
Experiment Summary: EMSA; HiTS-Eq, 1 nM pool, 10 min; buffer printed only for the single-RNA assays: 10 mM Tris pH 7.5, 150 mM NaCl, 3.4 mM EDTA, 0.001% NP-40, 30 C
Experimental Setup: tags: His6 N-terminal (pET28a); label: 5' 32P
Over roughly 16,000 sequences, “ka relative to ugcaugu” has its median near 0.0091; the highest 2% begin near 0.032. The sample as a whole holds a higher share of the highest values than the screen did.
Here the recorded binding signal is given for each entry.

These recorded examples may help you get a feel for the data.
QUERY: Which binding signal value belongs to UUUCUCU (DNA:RNA) RNA: GGGAGACCGGAAUUCAGAUUGUCCUUUCUCUUUAAAUCCCGUCGUAGCCACCA DNA 1: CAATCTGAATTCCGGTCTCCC DNA 2: TGGTGGCTACGACGGGATT ?
RESULT: 0.0126 KA relative to UGCAUGU

QUERY: Which binding signal value belongs to AAUAAUU (DNA:RNA) RNA: GGGAGACCGGAAUUCAGAUUGUCCAAUAAUUUUAAAUCCCGUCGUAGCCACCA DNA 1: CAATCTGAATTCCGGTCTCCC DNA 2: TGGTGGCTACGACGGGATT ?
RESULT: 0.00136 KA relative to UGCAUGU

QUERY: Which binding signal value belongs to ACCUUCG (DNA:RNA) RNA: GGGAGACCGGAAUUCAGAUUGUCCACCUUCGUUAAAUCCCGUCGUAGCCACCA DNA 1: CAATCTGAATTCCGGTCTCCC DNA 2: TGGTGGCTACGACGGGATT ?
RESULT: 0.00839 KA relative to UGCAUGU

QUERY: Which binding signal value belongs to GCUCUUG (DNA:RNA) RNA: GGGAGACCGGAAUUCAGAUUGUCCGCUCUUGUUAAAUCCCGUCGUAGCCACCA DNA 1: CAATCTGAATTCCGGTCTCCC DNA 2: TGGTGGCTACGACGGGATT ?
RESULT: 0.014 KA relative to UGCAUGU

QUERY: Which binding signal value belongs to GUAAGUA (DNA:RNA) RNA: GGGAGACCGGAAUUCAGAUUGUCCGUAAGUAUUAAAUCCCGUCGUAGCCACCA DNA 1: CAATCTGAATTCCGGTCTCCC DNA 2: TGGTGGCTACGACGGGATT ?
RESULT: 0.00628 KA relative to UGCAUGU

Continuing:
QUERY: Which binding signal value belongs to GCUAUGG (DNA:RNA) RNA: GGGAGACCGGAAUUCAGAUUGUCCGCUAUGGUUAAAUCCCGUCGUAGCCACCA DNA 1: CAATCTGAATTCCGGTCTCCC DNA 2: TGGTGGCTACGACGGGATT ?
RESULT: 0.0134 KA relative to UGCAUGU

QUERY: Which binding signal value belongs to AUUGUUU (DNA:RNA) RNA: GGGAGACCGGAAUUCAGAUUGUCCAUUGUUUUUAAAUCCCGUCGUAGCCACCA DNA 1: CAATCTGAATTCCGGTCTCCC DNA 2: TGGTGGCTACGACGGGATT ?
RESULT: 0.0146 KA relative to UGCAUGU

QUERY: Which binding signal value belongs to CCUGCAA (DNA:RNA) RNA: GGGAGACCGGAAUUCAGAUUGUCCCCUGCAAUUAAAUCCCGUCGUAGCCACCA DNA 1: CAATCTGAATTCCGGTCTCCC DNA 2: TGGTGGCTACGACGGGATT ?
RESULT: 0.00899 KA relative to UGCAUGU

QUERY: Which binding signal value belongs to AGUCCCC (DNA:RNA) RNA: GGGAGACCGGAAUUCAGAUUGUCCAGUCCCCUUAAAUCCCGUCGUAGCCACCA DNA 1: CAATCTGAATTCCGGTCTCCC DNA 2: TGGTGGCTACGACGGGATT ?
RESULT: 0.0101 KA relative to UGCAUGU
